Parameter: abundance fitness. Scope: all listed entries.
B1: POU domain, class 2, transcription factor 3, residues 186 to 260; numbered along this chain, Q9UKI9 (parent)
chain: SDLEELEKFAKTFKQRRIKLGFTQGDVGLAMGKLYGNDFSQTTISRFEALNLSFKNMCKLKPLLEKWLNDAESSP

Variants of: B1
Test: abundance fitness (aPCA) (normalised: wild type 0, dead -1); higher = more abundant; growth selection in yeast, the domain comes from the species named
Settings: Homo sapiens
Response field accepts a number only; no unit should be typed.

Task: Form field: reported abundance fitness of L63I
Output: 0.072

Task: Entry A49V please
Output: 0.011

Task: Likewise for E65V ?
Output: -0.095

Task: What about this variant? S45C
Output: 0.022

Task: Likewise for C58H ?
Output: -0.052

Task: Queued: L50W
Output: -0.105

Task: Same for N56C
Output: -0.016

Task: Now the variant L50K
Output: -0.051
